Molecular target: T1, human IL-17F (human, UniProt Q96PD4 31-163, biotinylated with Sulfo-NHS-LC-Biotin in the AlphaScreen assays only)
T1 construct: also called hIL-17F; recombinant human IL-17F
T1 sequence: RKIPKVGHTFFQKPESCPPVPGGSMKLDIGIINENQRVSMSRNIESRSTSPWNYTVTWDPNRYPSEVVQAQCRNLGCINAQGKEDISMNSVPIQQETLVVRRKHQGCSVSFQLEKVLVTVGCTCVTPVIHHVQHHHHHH
Assay: SPR Biacore, hIL-17F on chip; purified protein
observed property: koff

1. 17C01 (VHH, Class 4 Nanobody (cross-reactive: anti-IL-17A, IL-17F and IL-17A/F); not shown: c-myc, His6 tag) VHH: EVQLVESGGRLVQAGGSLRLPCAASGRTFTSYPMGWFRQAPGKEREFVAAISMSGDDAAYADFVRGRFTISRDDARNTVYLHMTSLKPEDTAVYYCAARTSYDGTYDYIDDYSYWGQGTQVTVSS | 0.056 s⁻¹
2. 16A04 (VHH, Class 3 Nanobody (anti-IL-17F); also called IL17MS16A04; not shown: c-myc, His6 tag) VHH: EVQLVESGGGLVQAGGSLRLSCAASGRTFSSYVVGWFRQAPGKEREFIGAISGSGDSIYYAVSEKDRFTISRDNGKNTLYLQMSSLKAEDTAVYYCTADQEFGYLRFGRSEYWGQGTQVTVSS | 0.00053 s⁻¹
3. 18B05 (VHH, Class 4 Nanobody (cross-reactive: anti-IL-17A, IL-17F and IL-17A/F); not shown: c-myc, His6 tag) VHH: EVQLVKSGGGLVQPGGSLRLSCAASGGTFSLFAMGWFREAPGKEREFVAAIRWSDGSSYYADSVKGRFTISRDNAKNAVHLQSNSLKSEDTAVYYCYADVQGGLHRYWGQGTQVTVSS | 0.14 s⁻¹
